meta.source: the M2OR odorant receptor database

Molecular target: OR9K2 (Homo sapiens)
Conditions: stereoisomer not certain
Quantity measured: odorant receptor agonist call

A selection of reference data follows.
>  <Compound>
CC1=NC(C)C(C)S1 (centres undefined)

>  <odorant receptor agonist call>
inactive

$$$$
>  <Compound>
CC1CCCCCCCCCCCCC(=O)C1 (centres undefined)

>  <odorant receptor agonist call>
inactive

$$$$
>  <Compound>
CC(=O)c1c(C)c([N+](=O)[O-])c(C(C)(C)C)c([N+](=O)[O-])c1C

>  <odorant receptor agonist call>
inactive

$$$$
>  <Compound>
CCC1OC(C)=C(O)C1=O (centres undefined)

>  <odorant receptor agonist call>
inactive

$$$$
>  <Compound>
CCCC(S)CCOC(C)=O (centres undefined)

>  <odorant receptor agonist call>
inactive

$$$$
>  <Compound>
CCC1OC(=O)C(O)=C1C (centres undefined)

>  <odorant receptor agonist call>
inactive

$$$$

# get_value(readout= odorant receptor agonist call, system= OR9K2 (Homo sapiens)) for CCC(S)C(C)CO (centres undefined)
inactive

# get_value(readout= odorant receptor agonist call, system= OR9K2 (Homo sapiens)) for CC(CO)CS (centres undefined)
inactive

# get_value(readout= odorant receptor agonist call, system= OR9K2 (Homo sapiens)) for CC1=C(O)C(=O)C(C)O1 (centres undefined)
inactive

----------
Target: OR1A1 (Homo sapiens)
Sequence (whole entry): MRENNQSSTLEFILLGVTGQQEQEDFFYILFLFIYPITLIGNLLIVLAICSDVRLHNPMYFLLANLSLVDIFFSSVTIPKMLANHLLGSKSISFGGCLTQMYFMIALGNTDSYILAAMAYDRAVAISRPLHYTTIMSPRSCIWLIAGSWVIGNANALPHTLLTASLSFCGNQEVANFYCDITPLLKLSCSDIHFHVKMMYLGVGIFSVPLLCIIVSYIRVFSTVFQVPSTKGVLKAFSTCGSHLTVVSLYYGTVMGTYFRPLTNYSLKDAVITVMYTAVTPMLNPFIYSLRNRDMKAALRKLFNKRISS
Conditions: stereoisomer not certain
Quantity measured: odorant receptor agonist call

>  <Compound>
CCCCCC1CCC(=O)O1 (centres undefined)

>  <Result>
active

$$$$
>  <Compound>
CC(=O)c1ccccc1N

>  <Result>
inactive

$$$$
>  <Compound>
CCC(C)C(=O)OC (centres undefined)

>  <Result>
inactive

$$$$
>  <Compound>
CCCCCCCCCCO

>  <Result>
active

$$$$
>  <Compound>
CCC(S)C(C)CO (centres undefined)

>  <Result>
inactive

$$$$

Quick one: odorant receptor agonist call of CCOC(=O)C(C)CC (centres undefined) ?
inactive

Quick one: odorant receptor agonist call of CC(=O)C1=NCCS1 ?
inactive

Quick one: odorant receptor agonist call of CCOC(=O)C1CCCCC1 ?
active

Quick one: odorant receptor agonist call of CC1=CCC(C(C)C)C=C1 (centres undefined) ?
inactive

----------
Target: OR3A1 (Homo sapiens)
Sequence (whole entry): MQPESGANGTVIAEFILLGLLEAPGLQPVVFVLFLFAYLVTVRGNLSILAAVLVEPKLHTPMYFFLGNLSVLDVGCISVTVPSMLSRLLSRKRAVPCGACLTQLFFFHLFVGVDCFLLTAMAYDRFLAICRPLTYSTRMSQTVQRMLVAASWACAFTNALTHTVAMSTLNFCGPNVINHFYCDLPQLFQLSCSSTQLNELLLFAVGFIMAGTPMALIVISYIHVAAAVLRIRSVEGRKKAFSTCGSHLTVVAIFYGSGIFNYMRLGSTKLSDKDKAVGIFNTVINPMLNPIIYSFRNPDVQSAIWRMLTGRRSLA
Details: stereoisomer not certain
Please reply with one of these outcomes: 1 = active, 0 = inactive

Sample answers from the record:
>  <Compound>
CC(C=O)Cc1ccccc1 (centres undefined)

>  <Tested system>
OR3A1 (Homo sapiens)

>  <Class name>
1

$$$$
>  <Compound>
CC1=CC(=O)CC(C(C)C)C1 (centres undefined)

>  <Tested system>
OR3A1 (Homo sapiens)

>  <Class name>
1

$$$$

Next, consider the following compound.
Hey, what did the test say about CC1=C(O)C(=O)C(C)O1 (centres undefined) ?
0
